assay: SRB cytotoxicity assay, MDCK cells; format: cell-based, canine; conditions: dog
outcome measure: CC50 at 48 h
The number alone won't do; follow it with the unit.

input: Could you tell me which CC50 at 48 h is on file for COc1ccc2cc3[n+](cc2c1OC)CCc1cc2c(cc1-3)OCO2 ?
output: 114 µg/mL
